meta.source: ChEMBL document CHEMBL3991601

Activity calls are given as the source filed them.
Dear all, this message contains Kd results, target or system Tyrosine-protein kinase FRK (Homo sapiens). Further: in the data inactive means no Kd found up to 30 µM.

Known results for compounds:
MOL	ASSAY_ENDPOINT	RECORDED_MEASUREMENT
COc1cc2ncnc3c2cc1OCCCCCN(C)Cc1ccc(Br)cc1N3	Kd	> 30 µM (inactive)
S=C(NCc1ccc2c(c1)OCO2)N1CCN(c2ncnc3c2oc2ccccc23)CC1	Kd	> 30 µM (inactive)
CNC(=O)c1cccc(-c2ccc3c(N4CCOC[C@@H]4C)nc(N4CCOC[C@@H]4C)nc3n2)c1	Kd	> 30 µM (inactive)
CCN(CCCOc1ccc2c(Nc3cc(CC(=O)Nc4cccc(F)c4)n[nH]3)ncnc2c1)CCOP(=O)(O)O	Kd	> 30 µM (inactive)

Data request, read-out Kd, for CC[C@@](C)(Nc1ccnc(-c2c[nH]c3ncccc23)n1)C(=O)NCC(F)(F)F > 30 µM (inactive)

Now consider C[C@@H]1COC(Nc2ccc3ncnc(Nc4ccc(OCc5nccs5)c(Cl)c4)c3c2)=N1 . > 30 µM (inactive)

Now consider CNC(=O)c1ccc(Nc2ncc(C(F)(F)F)c(NCc3nccnc3N(C)S(C)(=O)=O)n2)cc1 . > 30 µM (inactive)

Now consider O=C(NOC[C@H](O)CO)c1ccc(F)c(F)c1Nc1ccc(I)cc1F . > 30 µM (inactive)

###

The source made the active and inactive calls.
Dear all, this message contains Kd results, target or system Cyclin-dependent kinase 2 (Homo sapiens). Further: in the data inactive means no Kd found up to 30 µM.

Known results for compounds:
COMPOUND	Kd
COc1cc(F)c(F)c(Nc2ccc(I)cc2F)c1NS(=O)(=O)C1(C[C@H](O)CO)CC1	> 30 µM (inactive)
Cc1cc(Nc2nc(N[C@@H](C)c3ncc(F)cn3)ncc2Cl)n[nH]1	> 30 µM (inactive)
O=C(NC[C@H](O)CO)c1ccncc1Nc1ccc(I)cc1F	> 30 µM (inactive)
COc1cccc2cc(-c3nc([C@H]4CC[C@H](C(=O)O)CC4)n4ncnc(N)c34)[nH]c12	> 30 µM (inactive)
COc1ccc2c(OCc3nnc4ccc(-c5ccccc5)nn34)ccnc2c1	> 30 µM (inactive)

Data request, read-out Kd, for Cc1cc(C(=O)Nc2cc(Oc3ccc4nc(NC(=O)C5CC5)cn4n3)ccc2C)n(C)n1 > 30 µM (inactive)

Now consider CNC(=O)c1cccc(-c2ccc3c(N4CCOC[C@@H]4C)nc(N4CCOC[C@@H]4C)nc3n2)c1 . > 30 µM (inactive)

Now consider CNC(=O)c1cc(COc2nnc(Nc3ccc(Cl)cc3)c3ccoc23)ccn1 . > 30 µM (inactive)

Now consider CCc1cc2c(cc1N1CCC(N3CCOCC3)CC1)C(C)(C)c1[nH]c3cc(C#N)ccc3c1C2=O . > 30 µM (inactive)

Now consider COc1ccc(-c2ccc3ncc4c(c3c2)n(-c2ccc(N3CCNCC3)c(C(F)(F)F)c2)c(=O)n4C)cn1 [BGT-226 FREE BASE] . > 30 µM (inactive)

Now consider CCN(CCCOc1ccc2c(Nc3cc(CC(=O)Nc4cccc(F)c4)n[nH]3)ncnc2c1)CCOP(=O)(O)O . > 30 µM (inactive)

Now consider Cc1c(NC(=O)OC[C@@H]2COCCN2)cn2ncnc(Nc3ccc4c(cnn4Cc4cccc(F)c4)c3)c12 . > 30 µM (inactive)

###

biological target: Serine/threonine-protein kinase D2 (Homo sapiens, UniProt Q9BZL6); further: in the data inactive means no Kd found up to 30 µM
Sequence (Q9BZL6 whole entry): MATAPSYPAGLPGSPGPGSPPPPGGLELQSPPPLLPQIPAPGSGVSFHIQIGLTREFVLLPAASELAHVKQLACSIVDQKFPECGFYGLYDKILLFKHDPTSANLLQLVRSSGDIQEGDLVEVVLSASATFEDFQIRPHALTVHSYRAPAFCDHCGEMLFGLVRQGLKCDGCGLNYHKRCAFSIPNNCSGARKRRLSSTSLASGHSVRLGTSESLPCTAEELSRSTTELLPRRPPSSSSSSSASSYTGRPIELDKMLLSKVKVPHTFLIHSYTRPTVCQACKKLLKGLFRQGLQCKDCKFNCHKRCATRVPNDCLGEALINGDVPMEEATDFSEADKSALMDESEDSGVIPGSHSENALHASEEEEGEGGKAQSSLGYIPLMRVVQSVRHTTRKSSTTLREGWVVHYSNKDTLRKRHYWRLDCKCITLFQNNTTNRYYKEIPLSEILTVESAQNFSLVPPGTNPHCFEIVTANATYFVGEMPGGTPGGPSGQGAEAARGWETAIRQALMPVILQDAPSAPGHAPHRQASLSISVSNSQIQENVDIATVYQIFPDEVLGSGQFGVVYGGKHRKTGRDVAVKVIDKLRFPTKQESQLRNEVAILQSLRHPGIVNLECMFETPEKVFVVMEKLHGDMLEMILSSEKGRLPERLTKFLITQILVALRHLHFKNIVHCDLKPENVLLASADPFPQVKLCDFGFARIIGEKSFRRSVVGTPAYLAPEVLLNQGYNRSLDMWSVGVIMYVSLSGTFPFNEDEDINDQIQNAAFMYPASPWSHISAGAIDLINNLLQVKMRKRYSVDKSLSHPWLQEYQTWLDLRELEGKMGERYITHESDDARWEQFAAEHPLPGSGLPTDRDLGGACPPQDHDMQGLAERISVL
Calls of active or inactive are those of the source.
Mark one answer only. Choices: active, inactive

Called result for COc1cc2ncnc(Nc3ccc(F)c(Cl)c3)c2cc1NC(=O)/C=C/CN1CCCCC1 [DACOMITINIB ANHYDROUS] inactive

Now consider O=S(=O)(c1cccc2cnccc12)N1CCCNCC1 [FASUDIL] . active

Now consider COc1ccc2c(OCc3nnc4ccc(-c5ccccc5)nn34)ccnc2c1 [AMG-208] . inactive

Now consider COc1ccc(-c2ccc3ncc4c(c3c2)n(-c2ccc(N3CCNCC3)c(C(F)(F)F)c2)c(=O)n4C)cn1 [BGT-226 FREE BASE] . inactive

Now consider CNC(=O)c1cccc(-c2ccc3c(N4CCOC[C@@H]4C)nc(N4CCOC[C@@H]4C)nc3n2)c1 [VISTUSERTIB] . inactive

Now consider CCc1nc(C(N)=O)c(Nc2ccc(N3CCC(N4CCN(C)CC4)CC3)c(OC)c2)nc1NC1CCOCC1 [GILTERITINIB] . inactive

Now consider O[C@H]1CC[C@H](Nc2ncc3nc(Nc4c(F)cc(F)cc4F)n([C@H]4CCOC4)c3n2)CC1 [TANZISERTIB] . inactive

Now consider C=CC(=O)Nc1cc(Nc2nccc(-c3cn(C)c4ccccc34)n2)c(OC)cc1N(C)CCN(C)C [OSIMERTINIB] . inactive
